conditions: buffer; pH 7.4; 200.0 µM
Where solubility kinetic equals or exceeds 10 µg/mL, the correct label is true (1); where it does not, the label is false (0).

Solved cases (5 shown):
O=C(COc1ccc(Cl)cc1)NCCN1CCCCC1	true (1)
CCCCCCCNc1cccc(C)c1	false (0)
COc1cc(N)c(Cl)cc1C(=O)OCC(=O)NC1CCCC1	true (1)
O=C(CNc1ccccc1Cl)c1ccc(Br)cc1	false (0)
Cc1cnc(C(=O)OCC(=O)c2ccc(Cl)cc2)cn1	true (1)

Evaluate Cc1cc(=O)[nH]c(SCC(=O)N2CCCC(C)C2)n1 (stereo not drawn) : solubility kinetic at minimum 10 µg/mL?
true (1)

Evaluate CC(=O)Nc1ccc(-c2csc(NC(=O)CCNC(=O)c3ccco3)n2)cc1 : solubility kinetic at minimum 10 µg/mL?
true (1)

Evaluate CN(C(=O)CN1C(=O)c2ccc([N+](=O)[O-])cc2C1=O)C1CCCCC1 : solubility kinetic at minimum 10 µg/mL?
true (1)

Evaluate Cc1ccc(-n2c(C)cc(C(=O)OCC(=O)N3CCOCC3)c2C)cc1 : solubility kinetic at minimum 10 µg/mL?
true (1)

Evaluate CCCCOc1ccc(C(=O)Nc2ccc3c(c2)OCO3)cc1 : solubility kinetic at minimum 10 µg/mL?
false (0)

###

conditions: buffer; pH 7.4; 200.0 µM
ENDPOINT: solubility kinetic

Some solved entries appear below for comparison.
CCOC(=O)c1ccc(NC(=O)c2cc(C)nc3ccccc23)cc1	< 0.4 µg/mL
CCOC(=O)c1ccc(NC(=S)Nc2cc(C)cc(C)n2)cc1	< 0.2 µg/mL
O=C1NN(c2ccc(F)cc2)C(=O)/C1=C/c1cccs1	> 43.2 µg/mL
CC(C)[C@H](NC(=O)c1ccco1)C(=O)OCC(=O)c1ccc(Br)s1	> 62.1 µg/mL
Cc1ccc(CNC(=O)COC(=O)C2CCC2)cc1	> 39.2 µg/mL

Parameter requested: solubility kinetic. Apply to each item below.
1. O=C(NCC(=O)N1CC=C(c2ccccc2)CC1)c1ccco1
2. Cc1ccc(NC(=O)c2c([N+](=O)[O-])cnn2C)cc1C
3. CC(CN1CCOCC1)OC(=O)c1ccccc1.Cl (centres undefined)
4. CN(CC(=O)Nc1ccc(F)c(F)c1F)C(=O)C1CCCCC1

> 46.6 µg/mL
> 41.1 µg/mL
> 42.9 µg/mL
> 49.3 µg/mL

###

conditions: buffer; pH 7.4; 200.0 µM
Please provide measured solubility kinetic for the entries that follow.

Some solved entries appear below for comparison.
Cc1ccccc1N1C(=O)c2cccc([N+](=O)[O-])c2C1=O	> 42.3 µg/mL
CC(C)CC(=O)N/N=C/c1c(N)n(C)c(=O)n(C)c1=O	> 42.2 µg/mL
CCOc1ccc(OCCC(=O)OCC(=O)NC2CC2)cc1	> 46.1 µg/mL
C=CCSc1nc2sc3c(c2c(=O)n1CC)CCc1ccccc1-3	> 53.2 µg/mL
COc1cccc(NC(=O)CN(C)C(=O)C2CC3C=CC2C3)c1 (stereo unspecified)	> 47.2 µg/mL
Cl.Nc1ccn([C@H]2C[C@H](O)[C@@H](CO)O2)c(=O)n1	> 39.6 µg/mL

Parameter requested: solubility kinetic. Apply to each item below.
1. Cc1ccnc(NC(=O)c2ccccc2NC(=O)c2ccccc2)c1
2. COc1ccc(C(=O)NCC(=O)c2ccccc2)cc1
3. O=C(Nc1ccc(Cl)c(Cl)c1)c1ccc2c(c1)OCO2
4. O=C(Cc1ccccc1Cl)NCc1cccnc1
5. CCCCNc1c(N)n(CCC)c(=O)[nH]c1=O

1: < 0.2 µg/mL; 2: > 40.4 µg/mL; 3: < 0.7 µg/mL; 4: > 39.1 µg/mL; 5: > 36 µg/mL
